test system: MS2 coat protein; test: apparent Kd, MS2 coat protein; higher = weaker binding; RNA-MaP array; FMN 200 µM where present; details: ligand present: flavin mononucleotide; designed as: OFF switch for flavin mononucleotide
READOUT LABEL: apparent Kd (nM)

• GCGUAAUAGAUCCUAUUUAUCUACAUGAGGAUCACCCAUGUGCAGGAUAUGCUAUAAUUUAAUAAGCAGAAGGGCAAUUUCCGC = 159
• AACAGUACAGGAUAUACAUGAGGAUCACCCAUGUGAGAAACCACUGGCGUACCAGAAAGUAGAAGGGUACUGGA = 97.8
• AAGGAUAGAGGAUAUACAUAGAUACAGAUUCAUGUAGUCCUACAUGAGGAUCACCCAUGUAGAAGGCUAUCCUA = 83.8
• GGAGGGCCUCGAGGAUAUCGCUGCGGUCGUCUGACAUGAGGAUCACCCAUGUGAGAAGGCGAGGCUACUGACUAUGCCCGUUAU = 275
• UAUUAAUGCAAGGAUAUGCUAUUAAUUUAUUUUGCAGAAGGUGCAACAUGAGGAUCACCCAUGUUGGAGGGUAU = 34.3
• GUAUGACAAAGUCAUACCGCUCUGACAUGAGGAUCACCCAUGUAGGAUAUAUUAAUCAAAGAUUAAUAGAAGGACAUGUUUCUU = 79.3
• UUGUUUGUAGUGAGGAUAUCGUUGAGGAAGAGGAUCGAGAAGGCACAUGAGGAUCACCCAUGUUAGAUGUGGUU = 198

---

test system: MS2 coat protein; assay: apparent Kd, MS2 coat protein; higher = weaker binding; RNA-MaP array; theophylline 2 mM where present; details: designed as: OFF switch for theophylline; no ligand
READOUT LABEL: apparent Kd (nM)

* UAUAUGGUGAUGGAUACCAGCAGAGAAAACGUUUAUCCUAACAUGAGGAUCACCCAUGUAUGCCCUUGGCAGCUGUUGUUAUAUA | 37.9
* UACAUGAGGAUCACCCAUGUAUGAAUAGAUACCAGCGAAAAUAAGCGCCCUUGGCAGCUAGUGAAUAAAGGGUGGGUAAAAUAAU | 9.18
* UACAUGAGGAUCACCCAUGUAUACAUGGAUACCAGCGACAAUGGGCGCCCUUGGCAGCUAGUGGAUGGAGGGUGGCCACAGUACU | 70.2
* UGGUUUGUGAUGGAUACCAGCAGAGAAAACGUUUAUCCUAACAUGAGGAUCACCCAUGUAUGCCCUUGGCAGCUGUUGUGGGCUG | 36
* UGACAUUGCUGCGAUACCAGACAUGAGGAUCACCCAUGUACCAAGGUACGAAAAUAACAUGUCCCUUGGCAGCGCAGCAAUGUCU | 12.6
* GUCAGUAGAACAGAUACCAGUCAAAGGCUGUGAUCUCAUAACAUGAGGAUCACCCAUGUUGACCCUUGGCAGCUGUGGGCGAGGG | 45.2
* AAUAAGUACUUUGAUACCAGCCUGCCAUCAUGCUAAUUUACAUGAGGAUCACCCAUGUUAGGCCCUUGGCAGCAAAGUGCAAUAA | 12.5
* AGCCUAUUACAUGAGGAUCACCCAUGUGAUACCAGUCAGGAAACUGACCCUUGGCAGCGCAUGAGGAUCACCCAUGCGCGAGGCA | 11

---

test system: MS2 coat protein; experiment: apparent Kd, MS2 coat protein; higher = weaker binding; RNA-MaP array; tryptophan 2.4 mM where present; conditions: designed as: ON switch for tryptophan; no ligand
Where apparent Kd equals or exceeds 50 nM, the correct label is Met; where it does not, the label is Not met.

• AGCAACAAGUCGGCCGCCACUCAUUUAACAUGAGGAUCACCCAUGUGAAUAACAUGGUUGUAAUAGAGGACCGGGACAGUUGCAU = Met
• AUUCAUGGAAACAUGACAUAGGGAUCUAUCCGAGGACCGGUACGGCCGCCACUCGCGUGGAGGCACAUGAGGAUCACCCAUGUUA = Met
• UUCUACGACGAUCUGGGAAAACCAGAUCGACGAGGACCGGUACGGCCGCCACUCGUGUUUCUUUAACAUGAGGAUCACCCAUGUA = Not met
• AUGGACGACGAUCUGGGAAAACCAGAUCGACGAGGACCGGUACGGCCGCCACUCGUGUUUAUUUAACAUGAGGAUCACCCAUGUA = Not met
• UUAUGCAGGUCGGCCGCCACUACACACAUGAGGAUCACCCAUGUAGUUACUGGGUGAAGUGGCAGUAGGACCGGGACCUGCAUAC = Met
• AAAUAAUAUUAAUUAAUUAUAUUAUUCUGACGAGGACCGGUACGGCCGCCACUCGGCCCAUGGUACAUGAGGAUCACCCAUGUCU = Not met
• GCAUCCUAGUCGGCCGCCACUACAACAUGAGGAUCACCCAUGUGUGGGAGAUCCGUCCUACGAAGUAGGACCGGGACUAGGAUGC = Met
• AAGACCAGGAGGUGAUCCUAACUGGUCCAACGAGGACCGGUACGGCCGCCACUCGAAUAAACAUGAGGAUCACCCAUGUAAUAAU = Met
• GGUUACUCUACGGCCGCCACUGUUAAAUAAUAAACCUGUACAUAAACAUGAGGAUCACCCAUGUACAGGACCGGGUAGUGUAACC = Not met
• ACACCAUACAUGAGGAUCACCCAUGUUACACGAGGACCGGUACGGCCGCCACUCGAAUUCAGGAAACCUCGGAUAAUAUUGUGAA = Not met
• UGUCAGCGAAAGUUGACAUGUCUUACCGGUCGAGGACCGGUACGGCCGCCACUCGAUCUCUCGCACAUGAGGAUCACCCAUGUCG = Not met
• CAAAAUAUAACGGCCGCCACUUACUCAUGAGGUAACAACAUGAGGAUCACCCAUGUUUGAGGAUCAAGGACCGGGUUAUAUUUUG = Not met

---

tested on: MS2 coat protein; experiment: apparent Kd, MS2 coat protein; higher = weaker binding; RNA-MaP array; conditions: designed as: OFF switch for theophylline; no ligand
// reported apparent Kd per item
READOUT LABEL: apparent Kd (nM)

* AAAUAAUCUAGUCCACAAUGUGACUCAGAUACCAGUGCAAAGCUACACCCUUGGCAGCUGGUUACAUGAGGAUCACCCAUGUCGU | 47.6
* UUGGAUGAAGGAGUGAAAAGCAACUCAGAUACCAGUCUGAGUAAUGACCCUUGGCAGCUGAGAACAUGAGGAUCACCCAUGUGAC | 15.2
* CCUAUUCCUACGGAUACCAGACGAUCCGUGGCGUGUGUGAACAUGAGGAUCACCCAUGUAGUCCCUUGGCAGCCGAUGCGGGUAA | 34.3
* CUGCCACAGAUAGAUACCAGAGGCGUGCAAGCUACAGCUCACAUGAGGAUCACCCAUGUUCUCCCUUGGCAGCUACGGUGUAAGG | 16.6
* AAGUCAGGAGGCGAUACCAGUUACGACAUGGCCAGUUACAUGAGGAUCACCCAUGUGCGGAACCCUUGGCAGCGCUUACAUCGCU | 23.1
* AAAACGCAACUCGAUACCAGUACACUGAGUCUUCGCCACGACAUGAGGAUCACCCAUGUGUACCCUUGGCAGCGACAGAGCCACA | 53.9
* UGUCAAUCGCCGGAUACCAGCCUAACUGAAGGAAAUCUAAACAUGAGGAUCACCCAUGUAGGCCCUUGGCAGCCGAGUAAGUACA | 40.3

---

List of apparent Kd values.
tested on: MS2 coat protein; assay: apparent Kd, MS2 coat protein; higher = weaker binding; RNA-MaP array; conditions: ligand present: tryptophan; designed as: ON switch for tryptophan
READOUT LABEL: apparent Kd (nM)

• GCAAAGUGAUCGGCCGCCACUGCAAUGCUUAAUGGAGGUCCACAUGAGGAUCACCCAUGUCUUCCCAGGACCGGGAUCUCGAGUU = 66.9
• UAGAAACGUACGGCCGCCACUCGGAAUUGGCUCAGACCAUACGUACAUGAGGAUCACCCAUGUUAGAGGACCGGGUAUAAUCUAA = 20.3
• UAAAACAUGAGGAUCACCCAUGUAUUGAGUCGAGGACCGGUACGGCCGCCACUCGGCAAUAAUAACGACGCAUAGCAUGUAGGAA = 14.5
• CAGAACAUGAGGAUCACCCAUGUAAACGACCGAGGACCGGUACGGCCGCCACUCGAUAUGUCUUGAGGGAGAUAUGGAUUCACAU = 38.3

---

Parameter: apparent Kd. Scope: all listed entries.
system: MS2 coat protein; test: apparent Kd, MS2 coat protein; higher = weaker binding; RNA-MaP array; conditions: ligand present: tryptophan; designed as: OFF switch for tryptophan
READOUT LABEL: apparent Kd (nM)

- GGUUGAUGGUCGGCCGCCACUGUUGGUGCCAUGAGUUAAGUAUAGCACAUGAGGAUCACCCAUGUCAGGACCGGGACUCUACCCG: 18.1
- CAAGAGUUGUACAUUGUGAGGCGUCGGGAACGAGGACCGGUACGGCCGCCACUCGAAAAUUAACAUGAGGAUCACCCAUGUACAC: 47.7
- UGGUGCCCUGUAUACAUUGUAAUCCUAAUGCGAGGACCGGUACGGCCGCCACUCGUUGCGGAACAUGAGGAUCACCCAUGUAACA: 16.6
- AGCGCGAAUAGAUCCAAAGUUAUUAGUGAGCGAGGACCGGUACGGCCGCCACUCGUGGCUCUACAUGAGGAUCACCCAUGUACAU: 432
